target: Human CD137 ECD (human); assay: SPR, vs parent H183/L072
Sequence (chain, as listed by the source limits assumed): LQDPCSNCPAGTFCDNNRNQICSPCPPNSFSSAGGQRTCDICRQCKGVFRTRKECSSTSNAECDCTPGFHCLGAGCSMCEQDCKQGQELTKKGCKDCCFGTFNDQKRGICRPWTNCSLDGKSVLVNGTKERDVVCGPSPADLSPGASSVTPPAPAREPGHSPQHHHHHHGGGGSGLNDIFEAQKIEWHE
Result type: fold change of affinity (fold)
Give the value, in units of fold, as a plain number.

Known fold change of affinity results, listed for orientation:
binder="dBBDu183H L100dY / dBBDu072L (antibody, name in Kabat numbering, V domains shown) VH: QVQLVESGGGLVQPGRSLRLSCAASGFTFSNAWMHWVRQAPGKGLEWVAQIKDKGNAYAAYYAPSVKGRFTISRDDSKNSIYLQMNSLKTEDTAVYYCHYVHYASASTVYPAFGVDAWGQGTTVTVSS VL: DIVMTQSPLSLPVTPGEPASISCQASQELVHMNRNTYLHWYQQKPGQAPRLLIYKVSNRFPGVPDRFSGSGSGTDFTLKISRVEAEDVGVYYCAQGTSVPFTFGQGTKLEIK" recorded_value=0
binder="dBBDu183H Y97G / dBBDu072L (antibody, name in Kabat numbering, V domains shown) VH: QVQLVESGGGLVQPGRSLRLSCAASGFTFSNAWMHWVRQAPGKGLEWVAQIKDKGNAYAAYYAPSVKGRFTISRDDSKNSIYLQMNSLKTEDTAVYYCHYVHGASASTVLPAFGVDAWGQGTTVTVSS VL: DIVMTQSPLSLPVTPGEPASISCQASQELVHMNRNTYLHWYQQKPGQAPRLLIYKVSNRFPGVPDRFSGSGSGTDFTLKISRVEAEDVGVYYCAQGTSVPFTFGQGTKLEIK" recorded_value=0

The reported value for dBBDu183H A102T / dBBDu072L (antibody, name in Kabat numbering, V domains shown) VH: QVQLVESGGGLVQPGRSLRLSCAASGFTFSNAWMHWVRQAPGKGLEWVAQIKDKGNAYAAYYAPSVKGRFTISRDDSKNSIYLQMNSLKTEDTAVYYCHYVHYASASTVLPAFGVDTWGQGTTVTVSS VL: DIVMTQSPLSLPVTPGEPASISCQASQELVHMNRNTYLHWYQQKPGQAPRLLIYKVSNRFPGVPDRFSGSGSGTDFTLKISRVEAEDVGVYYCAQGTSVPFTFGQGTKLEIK in terms of fold change of affinity is 0
